Source listed as ChEMBL document CHEMBL4020819.

Below is a list of entries, each paired with its recorded clearance value.
- assay_overview: Clearance in rat at 1 mg/kg, iv
- Type: ADME, organism-based
- test_context: in vivo
API: value field is a number in mL/min/kg; no unit string.

COc1ccc2c(c1)O[C@@H](c1cccc(C(=O)O)c1)C[C@H]2NC(=O)C1(c2ccc3c(c2)OC(F)(F)O3)CC1 | 20.7

The value of clearance measured for the molecule O=C(O)c1ccc([C@H]2C[C@@H](NC(=O)C3(c4ccc5c(c4)OC(F)(F)O5)CC3)c3ccc(OC(F)F)cc3O2)cc1 [GALICAFTOR] turned out to be 9.17

The value of clearance measured for the molecule `COc1ccc2c(c1)O[C@@H](c1ccc(C(=O)O)cc1)C[C@H]2NC(=O)C1(c2ccc3c(c2)OC(F)(F)O3)CC1` turned out to be 10.3
